- system-under-test: T1, Biotin-huCGRPaSA (human, not fully specified; biotin (position not given))
- T1 construct: exact construct ('aSA') not explained; also called Biotin CGRPaSA; full-length (1-37) CGRP
- T1 peptide: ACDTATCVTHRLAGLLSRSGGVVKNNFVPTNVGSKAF
- test: ELISA, supernatant; relative to chimeric C245
Reported Relative binding activity, % values for the following binders.
The reply should be a number in %, with the unit left off.

Reference set, count: 2
binder	units-of-measure	test-result
hu6 (antibody, V domains shown, 1B2 HC-1/1F5 LC1-2) VH: QVQLVQSGAEVKKPGASVKVSCKASGYTFTDYNMHWVRQAPGQGLEWMGYIFPYNGVAVYNRKFRSRVTLTIDTSSSTAYMELRSLRSDDTAVYYCAREGLGGYWGQGTLVTVSS VL: EIVLTQSPATLSLSPGERATLSCKASQNIDFDGYAYMNWYQHKPGQAPRVLIYSVFNLESGIPARFSGSGSGTDFTLTISSLEPEDFAVYYCQQSHEVPYTFGQGTKLEIK	%	93
hu189 (antibody, V domains shown, 3E5 HC-4/1F5 LC1-3) VH: QVQLVQSGAEVKKPGASVKVSCKTSGYTFTDYNMHWVRQAPGQRLEWMGYISPYNAGTAYNQKFKFRVTLTVDTSSSTAYMELSSLRSEDTAVYYCAREGLGGYWGQGTLVTVSS VL: DIVLTQSPASLAVSPGQRATITCKASQNIDFDGYAYMNWYQQKPGQPPKVLIYSVFNLESGVPARFSGSGSGTDFTLTINPVEADDTANYYCQQSHEVPYTFGQGTKLEIK	%	73

Give the reported value of Relative binding activity, % for this record: hu228 (antibody, human IgG4 S228P, kappa, V domains shown) VH: QVQLVQSGAEVKKPGASVKVSCKASGYTFTGYTMNWVRQAPGQRLEWMGLINPYIGNTHYNQKFKDRVTFTVDRSSSTAYMELSSLRSEDTAVYYCARELDSGFDYWGQGTLVTVSS VL: DVVMTQSPDSLAVSLGERATINCRSSQNIVHSNGDTYLEWYQQKPGQPPKLLIYKVSNRFSGVPDRFSGSGSGTDFTLTISSLQAEDVAVYYCYQGSHVPWTFGQGTKLEIKR
68
